- System: HeLa
- TEST PROTOCOL: Antitumor activity against human HeLa cells assessed as inhibition of cell growth by MTT assay
- Assay type: functional, cell-based
Sorting guide: entries reporting IC50 beneath 30 µM go in the YES pile, the rest go in the NO pile.

Ask | Here's an entry: COc1c(O)ccc(/C=C/C(=O)NC23CC4CC(CC(C4)C2)C3)c1[N+](=O)[O-] . Is its IC50 below 30 µM?
Reply | NO

Ask | Here's an entry: O=C(/C=C/c1ccc(O)c(O)c1)NC12CC3CC(CC(C3)C1)C2 . Is its IC50 below 30 µM?
Reply | YES

Ask | Here's an entry: O=C(/C=C/c1ccc(O)c(O)c1)OCCc1ccccc1 . Is its IC50 below 30 µM?
Reply | NO

Ask | Here's an entry: CCCCCCCCOC(=O)/C=C/c1ccc(O)c(O)c1 . Is its IC50 below 30 µM?
Reply | NO

Ask | Here's an entry: O=C(/C=C/c1ccc(O)c(O)c1)OC12CC3CC(CC(C3)C1)C2 . Is its IC50 below 30 µM?
Reply | NO

Ask | Here's an entry: CC(C)(C)OC(=O)/C=C/c1ccc(O)c(O)c1 . Is its IC50 below 30 µM?
Reply | YES

Ask | Here's an entry: O=C(/C=C/c1cc(O)c(O)c(Cl)c1)NC12CC3CC(CC(C3)C1)C2 . Is its IC50 below 30 µM?
Reply | NO

Ask | Here's an entry: CCCCCCCOC(=O)/C=C/c1ccc(O)c(O)c1 . Is its IC50 below 30 µM?
Reply | YES

Ask | Here's an entry: CCC(C)OC(=O)/C=C/c1ccc(O)c(O)c1 (stereo not drawn) . Is its IC50 below 30 µM?
Reply | YES

Ask | Here's an entry: COc1cccc2c1C(=O)c1c(O)c3c(c(O)c1C2=O)C[C@@](O)(C(=O)CO)C[C@@H]3O[C@H]1C[C@H](N)[C@H](O)[C@H](C)O1 . Is its IC50 below 30 µM?
Reply | YES

Ask | Here's an entry: CCCCCCCCCCCCCCCCCCOC(=O)/C=C/c1ccc(O)c(O)c1 . Is its IC50 below 30 µM?
Reply | NO

Ask | Here's an entry: O=C(/C=C/c1ccc(O)c(O)c1)OCc1ccccc1 [BENZYL CAFFEATE] . Is its IC50 below 30 µM?
Reply | YES

Ask | Here's an entry: COc1cc(/C=C/C(=O)OC23CC4CC(CC(C4)C2)C3)ccc1O . Is its IC50 below 30 µM?
Reply | NO

Ask | Here's an entry: O=C(/C=C/c1ccc(O)c(O)c1)Oc1ccc2ccccc2c1 . Is its IC50 below 30 µM?
Reply | YES

Ask | Here's an entry: CCCCCCC(C)OC(=O)/C=C/c1ccc(O)c(O)c1 (stereo not drawn) . Is its IC50 below 30 µM?
Reply | NO

Ask | Here's an entry: COc1cc(/C=C/C(=O)NC23CC4CC(CC(C4)C2)C3)cc([N+](=O)[O-])c1O . Is its IC50 below 30 µM?
Reply | NO

----------
- Tested on: SiHa
- TEST PROTOCOL: Antitumor activity against human SiHa cells assessed as inhibition of cell growth by MTT assay
- Type: functional, cell-based
ASSAY READOUT: pIC50
The quantity pIC50 is defined as the negative base-10 logarithm of the molar concentration.

Ask | Data request, read-out pIC50, for CC(C)(COC(=O)/C=C/c1ccc(O)c(O)c1)[N+](=O)[O-]
Reply | 4.52

Ask | Data request, read-out pIC50, for CCC(C)OC(=O)/C=C/c1ccc(O)c(O)c1 (centres undefined)
Reply | 4.47

Ask | Data request, read-out pIC50, for O=C(/C=C/c1ccc(O)c(O)c1)OCCCCc1ccccc1
Reply | 4.05

Ask | Data request, read-out pIC50, for CCCCOC(=O)/C=C/c1ccc(O)c(O)c1 [BUTYL CAFFEATE]
Reply | 4.39

Ask | Data request, read-out pIC50, for O=C(/C=C/c1ccc(O)c(O)c1)OCCc1ccccc1 [CAFFEIC ACID PHENETHYL ESTER]
Reply | 4.17

Ask | Data request, read-out pIC50, for CCCCCCCCOC(=O)/C=C/c1ccc(O)c(O)c1
Reply | 4.34

Ask | Data request, read-out pIC50, for CCCOC(=O)/C=C/c1ccc(O)c(O)c1
Reply | 4.35

Ask | Data request, read-out pIC50, for COc1cc(/C=C/C(=O)NC23CC4CC(CC(C4)C2)C3)cc(Cl)c1O
Reply | 4.46

Ask | Data request, read-out pIC50, for O=C(/C=C/c1cc(O)c(O)c(Br)c1)OCCc1ccccc1
Reply | 4.55

Ask | Data request, read-out pIC50, for COc1c(O)ccc(/C=C/C(=O)NC23CC4CC(CC(C4)C2)C3)c1[N+](=O)[O-]
Reply | 4.41

Ask | Data request, read-out pIC50, for O=C(/C=C/c1cc(O)c(O)c(Cl)c1)NC12CC3CC(CC(C3)C1)C2
Reply | 4.72

Ask | Data request, read-out pIC50, for O=C(/C=C/c1ccc(O)c(O)c1)OCc1ccccc1 [BENZYL CAFFEATE]
Reply | 4.13

Ask | Data request, read-out pIC50, for CC1(C)C2CCC1(C)C(OC(=O)/C=C/c1ccc(O)c(O)c1[N+](=O)[O-])C2 (centres undefined)
Reply | 4.29
